Hello, the source for this data is patent US20050089937A1, in case you need it.

biological target: rat spinal cord membrane receptor; assay: competition with [125I]D-Tyr-NPFF, rat spinal cord membranes
No end group written: not given here.
Could you label it rule met if measured pKi is 9 or higher, and rule not met otherwise?

-- ask Item PMRF-NH2 [PMRFa] with pKi of 9 or above?
-- reply rule met

-- ask Item FTRF (ends and bridges not checked) with pKi of 9 or above?
-- reply rule not met

-- ask Item H-KHQYLRF-NH2 (Printed as H-Lys-His-Gln-Tyr-Leu-Arg-Phe-NH2) [AF-2] with pKi of 9 or above?
-- reply rule not met
